- study.target: Microtubule-associated protein tau (Homo sapiens)
- protocol.details: qHTS Assay for Tau Filament Binding;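 further: actives lower thioflavin S fluorescence by blocking filaments or displacing dye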
- experimental.context: recombinant tau filaments, thioflavin S fluorescence, 15 h, filaments grown with octadecylsulfate alongside compound; series mostly up to 57.1 µM
About 1,400 (2%) of roughly 71,000 compounds were called active. About 3% were inconclusive and are not listed. The call rests on the fitted dose curve; in most records, active means well fitted curve in the direction sought with a large enough effect; inconclusive means small, poorly fitted or top-dose-only effect; inactive means no such curve, though single readings can be large or run the other way. Shown is part of a subset that was picked to be rich in actives.
Possible outcomes: 1 (active), -1 (inactive)

| molecule | group |
| --- | --- |
| COC(=O)c1ccc2c(=O)n(CC3CCCO3)c(=S)[nH]c2c1 (stereo not drawn) | -1 |
| O=C(Nc1ccccc1)Nc1ccccc1C(=O)NCc1ccco1 | -1 |
| COc1ccc(CCn2c(=N)c(C(=O)NCc3ccco3)cc3c(=O)n4cccc(C)c4nc32)cc1 | 1 |
| Cc1cccn2c(=O)c3cc(C(=O)NCc4ccccn4)n(C)c3nc12 | -1 |
| COc1ccc(S(=O)(=O)Nc2ccc3c(c2)OCO3)cc1Cl | 1 |
| COC(=O)C1=C(C)NC(=O)NC1/C=C/c1ccccc1 (stereo not drawn) | -1 |
| CCCCCCCCCCCC(=O)O | -1 |
| Cc1nn2c(c1-c1ccccc1)N=C(c1ccco1)CC2c1ccccc1 (stereo not drawn) | 1 |
| CCOc1ccc(NCCC(=O)c2ccc3c(c2)OCO3)cc1 | 1 |
| COC(=O)C1=C(C)NC2=C(C(=O)c3ccccc32)C1c1ccc(-c2ccc(C(=O)O)cc2)o1 (stereo not drawn) | 1 |
| NC[C@@H]1O[C@H](O[C@@H]2[C@H](O[C@@H]3O[C@H](CO)[C@@H](COC[C@H]4O[C@@H](CN)[C@@H](O)[C@@H](O)[C@@H]4N)[C@@H]3O)[C@@H](O)[C@@H](N)C[C@H]2N)[C@@H](N)[C@H](O)[C@@H]1O | -1 |
| C#CCCCCCCCCCCCCCCCC(=O)O | 1 |
| CC(C)CNS(=O)(=O)c1ccc(OCC(=O)Nc2ccc3c(c2)OCO3)c(Cl)c1 | -1 |
| COc1ccc(CNC(=O)c2cc3c(=O)n4ccccc4nc3n(CC3CCCO3)c2=N)cc1 (stereo not drawn) | 1 |
| C=C(C)C1CC=C(C)C(O)C1 (stereo not drawn) | -1 |
| C/C(CC(O)(/C=N/O)c1ccccc1)=N\O (stereo not drawn) | -1 |
| CNc1ncnc2ccc(-c3cccc(NS(C)(=O)=O)c3)cc12 | -1 |
| COc1ccccc1NC(=O)C1=C(C)NC2=C(C(=O)CCC2)C1c1ccc(C)o1 (stereo not drawn) | -1 |
| Cc1ccc2nc(-c3ccccc3)cc(C(=O)O)c2c1 | -1 |
| Cc1nn(C(=O)c2ccoc2C)c(N)c1-c1ccccc1 | -1 |
| O=Cc1c(Cl)cccc1Cl | -1 |
| CCC(C)(C)n1nnnc1C(c1ccccc1OC)N1CCSCC1 (stereo not drawn) | -1 |
| CCn1c(=N)c(C(=O)NCCCOC)cc2c(=O)n3cccc(C)c3nc21 | -1 |

---

- study.target: Microtubule-associated protein tau (Homo sapiens)
- protocol.details: qHTS Assay for Tau Filament Binding;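 further: actives lower thioflavin S fluorescence by blocking filaments or displacing dye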
- experimental.context: recombinant tau filaments, thioflavin S fluorescence, 15 h, filaments grown with octadecylsulfate alongside compound; series mostly up to 57.1 µM
The campaign covered roughly 71,000 compounds. About 1,400 (2%) were called active. About 3% were inconclusive and are not listed. Calls come from the whole dose curve; as a rule, active = well fitted curve in the direction sought with a large enough effect; inconclusive = small, poorly fitted or top-dose-only effect; inactive = no such curve, though single readings can be large or run the other way. The sample holds actives, similar compounds and a random draw of the others, so the mix is not that of the screen.
Possible outcomes: T (active), F (inactive)

| substance.smiles | study.target | group |
| --- | --- | --- |
| O=c1c(-c2cccs2)nc2cnc(Oc3ccccc3)nc2n1-c1ccccc1 | Microtubule-associated protein tau (Homo sapiens) | F |
| COc1cccc(Cn2c(=O)cnc3cncnc32)c1 | Microtubule-associated protein tau (Homo sapiens) | F |
| CCOc1ccccc1N=C1NC(=O)CS1 | Microtubule-associated protein tau (Homo sapiens) | F |
| CCNc1ncc2ncc(=O)n(Cc3cccc(OC)c3)c2n1 | Microtubule-associated protein tau (Homo sapiens) | F |
| COCCn1c(=O)c(CCc2ccccc2)nc2cnc(N3CCNCC3)nc21 | Microtubule-associated protein tau (Homo sapiens) | F |
| COC(=O)N1CCC2(CCCN(c3ccncc3)C2)CC1 | Microtubule-associated protein tau (Homo sapiens) | F |
| COCCn1c(=O)c(-c2cc(F)cc(F)c2)nc2cnc(N3CCNCC3)nc21 | Microtubule-associated protein tau (Homo sapiens) | T |
| COc1cccc(Nc2ncc3ncc(=O)n(C4CC4)c3n2)c1 | Microtubule-associated protein tau (Homo sapiens) | T |
| CN(C(=O)COc1nnc(-c2cccs2)c(-c2cccs2)n1)c1ccccc1 | Microtubule-associated protein tau (Homo sapiens) | T |
| Cc1ccc(-n2c(N)c(C(=O)N3CCOCC3)sc2=S)c(C)c1 | Microtubule-associated protein tau (Homo sapiens) | F |
| COCCn1c(=O)c(-c2cc(F)cc(F)c2)nc2cncnc21 | Microtubule-associated protein tau (Homo sapiens) | F |
